# Tested on: HCT-116
# METHOD_NOTES: NCI tumour cell line growth inhibition, 48 h
Calls of active or inactive are those of the source. Cut-off read from the data, not from the text of the source: active = GI50 up to about 1.1 µM and inactive = higher.
Classes used: active, inactive

>>> print(df.to_string())
                                    compound  assigned_label
 0  NC(CCC(=O)NC(CSC(=O)N(O)c1ccccc1)C(=O)NCC(=O)O)C(=O)O (stereo unspecified)        inactive
 1  COc1ccc2[nH]cc(CN3CCC(CO)(c4ccccc4)CC3)c2c1        inactive
 2      O=C(O)COc1cc(-c2ccccc2)nc2ccc(F)cc12        inactive
 3  CC(O)C1(CNc2cc(Cl)nc(N)n2)CCC1 (stereo unspecified)        inactive
 4  Nc1ncnc2c1ccn2C1OC2COP(=O)(O)OC2C1O (stereo unspecified)          active
 5  COc1cc2c(cc1OC)C(=O)C(C1=C(SC(=N)N)C(=O)c3cc(OC)c(OC)cc31)C2 (stereo unspecified)        inactive
 6   CCOC(=O)Nc1cc2c(c(N)n1)N=C(c1ccccc1)CN2          active
 7  CC/C=C/C(CC)C/C(C)=C\[C@]1(CC)C[C@H](CC)[C@H](CC(=O)O)OO1 (stereo partly specified)          active
 8  N#Cc1c(C#N)c(-c2cccc([N+](=O)[O-])c2)n(-c2ccccc2)c1N        inactive
 9                     COc1nc2nccc-2c2occn12        inactive
10  Cc1c(/C=N/NC(=O)c2cc(Br)cc(Br)c2O)c(=O)n(-c2ccccc2)n1C        inactive
11  CC(C)(C)/C(O)=C\c1nc2cc(F)c(F)cc2[nH]c1=O        inactive
12      O=C(O)c1cccc(F)c1C(=O)c1ccc2ccccc2c1        inactive
13  CC1=CC(=O)/C(=C/n2c(=S)[nH]c3cc(C)ccc32)C(=O)O1        inactive
14              O=C1c2ccsc2C(=O)c2sc(CO)cc21          active
15  COC(=O)/C=C/c1ccc2nncnc2c1.COC(=O)/C=C\c1ccc2nncnc2c1        inactive
16  CC(=O)NNc1nc(C)c(C(/C=C/c2cccc([N+](=O)[O-])c2)=N/NC(=S)NN)s1        inactive
17  Cc1c(C#N)c2nnn(-c3ccc([N+](=O)[O-])cc3)c(=O)n2c1-c1ccccc1        inactive
18  CC(C)(C)c1cc(C(=O)/C=C/c2ccc3c(c2)CCO3)cc(C(C)(C)C)c1O        inactive
19  C=CC(C)(C)n1cc(C2=C(O)C(=O)C(c3cn(C(C)(C)C=C)c4ccccc34)=C(O)C2=O)c2ccccc21        inactive
20  CC(=O)c1ccc2c(c1)N(CCCN1CCN(CCO)CC1)c1ccccc1C2        inactive
